Entries and their pEC50 values follow.
system: Human immunodeficiency virus 1; assay: Antiviral activity against HIV1 latently infected in PMA-stimulated human OM10.1 cells assessed as reduction in p24 antigen levels pre-incubated for 2 hrs with host cells followed by 2 day incubation; format: functional, organism-based
Please note pEC50 is a logarithmic value: minus log10 of concentration in mol/L. Answer with that number alone.

INSERT INTO results (compound, measurement_target, test_result) VALUES
  ('CCN1c2ncccc2NC(=O)c2ccc(N3CCN(c4cc5c(cc4N)c(=O)c(C(=O)O)cn5C)CC3)nc21', 'Human immunodeficiency virus 1', 5.29);

Next, consider the following molecule.
Measured pEC50 of Cn1cc(C(=O)O)c(=O)c2cc(N)c(N3CCN(c4ccccn4)CC3)cc21 : 7.12

----------
Entries and their IC50 values follow.
target: Human immunodeficiency virus type 1 reverse transcriptase (Human immunodeficiency virus 1); experiment: Inhibition of HIV1 recombinant wild type reverse transcriptase p66/p51 using dsDNA by microplate reader based assay
Field: numeric (µM). Do not append units.

Worked cases, IC50 given:
INSERT INTO assay_data (compound, assay_metric, test_result) VALUES
  ('CCN1c2ncccc2NC(=O)c2ccc(N3CCN(c4cc5c(cc4N)c(=O)c(C(=O)O)cn5C)CC3)nc21', 'IC50', 8.4),
  ('CCN1c2ncccc2NC(=O)c2cc(NCCNc3cc4c(cc3N)c(=O)c(C(=O)O)cn4C)cnc21', 'IC50', 73.4),
  ('CCN1c2ncccc2NC(=O)c2cc(N3CCN(c4cc5c(cc4N)c(=O)c(C(=O)O)cn5C)CC3)cnc21', 'IC50', 14.8);

Next, consider the following molecule.
Measured IC50 of Cn1cc(C(=O)O)c(=O)c2cc(N)c(N3CCN(c4ccccn4)CC3)cc21 : 800

----------
target: Human immunodeficiency virus type 1 reverse transcriptase (Human immunodeficiency virus 1, UniProt Q72547); test: Inhibition of HIV reverse transcriptase
ASSAY_METRIC: pIC50
Please note pIC50 is a logarithmic value: minus log10 of concentration in mol/L. Answer with that number alone.

Measured pIC50 of CCN1c2ncc(CCOc3cc[n+]([O-])c4ccccc34)cc2C(=O)N(C)c2cccnc21 : 7.77

----------
test: Cytotoxicity against mock-infected human MT4 cells after 5 days by MTT assay; type: cell-based
Entries and their CC50 at 120 h values follow.
Field: numeric (µM). Do not append units.

INSERT INTO measurements (compound, assay_metric, reading_unit, test_result) VALUES
  ('CCN1c2ncccc2NC(=O)c2ccc(N3CCN(c4cc5c(cc4N)c(=O)c(C(=O)O)cn5C)CC3)nc21', 'CC50 at 120 h', 'µM', 23.5);

Next, consider the following molecule.
Measured CC50 at 120 h of CCN1c2ncccc2NC(=O)c2cc(N3CCN(c4cc5c(cc4N)c(=O)c(C(=O)O)cn5C)CC3)cnc21 : 25.7
